Target: HIV protease (Human immunodeficiency virus type 1 group M subtype B)
Construct: plasmid containing HIV protease under the control of an inducible T7 promoter; made in house; host or cells: E. coli (inclusion bodies, T7 promoter)
Assay Summary: biochemical
Set-up: species or system HIV-1
Condition Summary: Table 2A; read-out: Ki
Experimental: HIV Protease Inhibition Assay—Spectroscopic Method Inclusion bodies were solubilized in 8M urea, 50 mM tris pH 8.0. Protease activity was recovered by dilution 20-fold into buffer containing 50 mM sodium acetate pH 5.5, 1 mM EDTA, 10% glycerol and 5% ethylene glycol. Enzyme was used at a final concentration of 1.0-10 ug/ml. Stock solutions of 10 mM were prepared in DMSO. All further dilutions were done in DMSO.
pKi: −log10 of the molar value.
Readout Kind: pKi

// known answers, use as guide
O=C1N(Cc2ccc(F)c(C(F)(F)F)c2)C(Cc2ccccc2)C(O)C(O)C(Cc2ccccc2)N1Cc1ccc(F)c(C(F)(F)F)c1 (centres unmarked) ... 6.00 to 8.00
O=C1N(Cc2ccc(OC(F)(F)F)cc2)C(Cc2ccccc2)C(O)C(O)C(Cc2ccccc2)N1Cc1ccc(OC(F)(F)F)cc1 (centres unmarked) ... 6.00 to 8.00
C=CCN1C(=O)N(Cc2ccccc2)C(Cc2ccccc2)C(O)C(O)C1Cc1ccccc1 (centres unmarked) ... > 8.00
O=C1N(Cc2cc(F)cc(C(F)(F)F)c2)C(Cc2ccccc2)C(O)C(O)C(Cc2ccccc2)N1Cc1cc(F)cc(C(F)(F)F)c1 (centres unmarked) ... 6.00 to 8.00
C=CCN1C(=O)N(CC=C(C)C)C(Cc2ccccc2)C(O)C(O)C1Cc1ccccc1 (centres unmarked) ... > 8.00
CC(C)=CCN1C(=O)N(C)C(Cc2ccccc2)C(O)C(O)C1Cc1ccccc1 (centres unmarked) ... 6.00 to 8.00
O=C1N(CCCc2ccccc2)C(Cc2ccccc2)C(O)C(O)C(Cc2ccccc2)N1CCCc1ccccc1 (centres unmarked) ... 6.00 to 8.00

Pending compound:
Exercise: Form field: reported pKi of O=C1N(Cc2cccc(OC(F)(F)F)c2)C(Cc2ccccc2)C(O)C(O)C(Cc2ccccc2)N1Cc1cccc(OC(F)(F)F)c1 (centres unmarked)
Key: 6.00 to 8.00

----------
Field: Ki. Provide a value for each of the compounds that follow.
Target: HIV protease (Human immunodeficiency virus type 1 group M subtype B, UniProt P04585)
Construct: plasmid containing HIV protease under the control of an inducible T7 promoter; made in house; host or cells: E. coli (inclusion bodies, T7 promoter)
Assay Summary: biochemical
Design: species or system HIV-1
Condition Summary: Table 1d, upper part; read-out: Ki

O=C1N(Cc2ccc3ccccc3c2)[C@H](Cc2ccccc2)C[C@@H](O)[C@@H](Cc2ccccc2)N1Cc1ccc2ccccc2c1 ... < 10 nM

Provide each entry's Ki from the list below.
1. O=C1N(CC2CC2)[C@H](Cc2ccccc2)C[C@@H](O)[C@@H](Cc2ccccc2)N1CC1CC1
2. CS(=O)(=O)OC1C(O)C(Cc2ccccc2)N(Cc2ccc3ccccc3c2)C(=O)N(Cc2ccc3ccccc3c2)C1Cc1ccccc1 (stereo not shown)
3. O=C1N(CC2CC2)C(Cc2ccccc2)C2OS(=O)OC2C(Cc2ccccc2)N1CC1CC1 (stereo not shown)

Key:
1. < 10 nM
2. 10 to 1000 nM
3. < 10 nM

----------
Target: single-chain tethered dimer of HIV protease (Human immunodeficiency virus 1)
Assay Summary: biochemical
Format: biochemical
Set-up: fused on or other part: A second copy of the same protease unit is joined to the first by a short peptide tether, giving one polypeptide
Condition Summary: read-out: Ki (HPLC); Table 1e, cells marked (HPLC)
Field: Ki. Provide a value for each of the compounds that follow.

// known answers, use as guide
O=C1N(Cc2ccc(CCl)cc2)[C@H](CCc2ccccc2)[C@@H](O)[C@@H](Cc2ccccc2)N1Cc1ccc(CCl)cc1 ... 10 to 1000 nM
O=C1N(CC2CC2)C(CCc2ccccc2)[C@@H](O)[C@@H](Cc2ccccc2)N1CC1CC1 (some centres unmarked) ... < 10 nM
O=C1N(Cc2ccc(CO)cc2)[C@H](CCc2ccccc2)[C@@H](O)[C@@H](Cc2ccccc2)N1Cc1ccc(CO)cc1 ... < 10 nM
O=C1N(CC2CC2)C(C(F)Cc2ccccc2)C[C@@H](Cc2ccccc2)N1CC1CC1 (some centres unmarked) ... > 1000 nM

Pending compound:
Exercise: Form field: reported Ki of O=C1N(Cc2cccc(O)c2)C(CCc2ccccc2)[C@@H](O)[C@@H](Cc2ccccc2)N1Cc1cccc(O)c1 (some centres unmarked)
Key: < 10 nM
